- study.target: T1, Lsb3, P43603
- T1 sequence (P43603 385-451, looked up): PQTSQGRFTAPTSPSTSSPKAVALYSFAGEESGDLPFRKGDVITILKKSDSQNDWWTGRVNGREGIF
- experimental.protocol: SPOT array
- applied.conditions: median of control spots 406
Entries whose SPOT intensity is below 5 take fulfilled; entries at or above 5 take not fulfilled.

             binder  classification
 0  QPQRTAPKPPISAPR       fulfilled
 1  NILKRRPLKLEAPSK       fulfilled
 2  RSLRKRPTSPSISGS   not fulfilled
 3  HGKRRAPLLLAKLDV       fulfilled
 4  RLSRLLLSLPPESFT       fulfilled
 5  DHPKGPPPPPPPDEK       fulfilled
 6  VQQDSLPKLPFRSWG   not fulfilled
 7  DFTLPPPPPPPGLDE       fulfilled
 8  PIVPSSPAPPLPLSG       fulfilled
 9  NPTKSPPPPPSPSTM       fulfilled
10  QNTPPLPPKPKSPHL   not fulfilled
11  WRPRIVPILPYITRL       fulfilled
12  NNQRRKPLLLNIGDH       fulfilled
13  VGFRLALKFPSRITG   not fulfilled
